- protocol.summary: qHTS assay to test for compound auto fluorescence at 535 nm (green) in HepG2 cell free culture (AID 720686)
- assay.context: Cell-free medium, green autofluorescence 485/535 nm; series mostly up to 46 µM
The source made the active and inactive calls. Calls follow the shape of the dose curve; as a rule, active = well fitted curve in the direction sought with a large enough effect in the repeat runs; inconclusive = weak or mixed curves; inactive = flat fitted curve, though single readings scatter.
test.readout: outcome

A selection of reference data follows.
compound	outcome
O=C1/C(=C\c2cccs2)CCC/C1=C\c1cccs1	inactive
NC[C@@H]1O[C@H](O[C@H]2[C@@H](O)[C@H](O[C@@H]3[C@@H](O)[C@H](N)C[C@H](N)[C@H]3O[C@H]3O[C@H](CN)[C@@H](O)[C@H](O)[C@H]3N)O[C@@H]2CO)[C@H](N)[C@@H](O)[C@@H]1O	inactive
NC(N)=NCC1COc2ccccc2O1 (stereo unspecified)	inactive
CCCCCCCCCCCCCCCC(=O)O[C@@H]1[C@@H](O)[C@@H](O)[C@@H]([C@H](NC(=O)[C@@H]2C[C@@H](CCC)CN2C)[C@H](C)Cl)O[C@@H]1SC	inactive
CCOc1cc(-c2nccc3cc(OC)c(OC)cc23)cc(OCC)c1OCC	inactive

Continue with the compound presented below.
Query string: Given the compound COc1ccc2cc([C@H](C)CO)ccc2c1 , what is its reported outcome?
Result string: inactive

----------
- protocol.summary: qHTS assay to test for compound auto fluorescence at 460 nm (blue) in HEK293 cell free culture (AID 720681)
- assay.context: cell-free medium, autofluorescence 405/460 nm (blue); series mostly up to 46 µM
The source made the active and inactive calls. Calls follow the shape of the dose curve; as a rule, active = well fitted curve in the direction sought with a large enough effect in the repeat runs; inconclusive = weak or mixed curves; inactive = flat fitted curve, though single readings scatter. Positions of bridges follow the written chain, without caps; N, C: chain ends. Residues, ends and D or L forms follow the SMILES beside them.
test.readout: outcome

molecule	test.readout	test.result
COc1ccc(C[C@@H](C)NC[C@H](O)c2ccc(O)c(NC=O)c2)cc1	outcome	inactive
CC(C)[C@@H](C)/C=C/[C@@H](C)[C@H]1CC[C@H]2/C(=C/C=C3\C[C@@H](O)CC[C@@H]3C)CCC[C@]12C	outcome	inactive
NCCCC[C@H](NC(=O)[C@@H]1CCCN1C(=O)[C@@H]1CSSC[C@H](NC(=O)CNC(=O)CNC(=O)CN)C(=O)N[C@@H](Cc2ccc(O)cc2)C(=O)N[C@@H](Cc2ccccc2)C(=O)N[C@@H](CCC(N)=O)C(=O)N[C@@H](CC(N)=O)C(=O)N1)C(=O)NCC(N)=O (H-GGGCYFQNCPKG-NH2; disulfide 4-9)	outcome	inactive

----------
- protocol.summary: qHTS assay to identify small molecule that activate the aryl hydrocarbon receptor (AhR) signaling pathway - cell viability counter screen (AID 743086); also: nearly all actives have a fitted effect of over 45% in size
- assay.context: HepG2-AhR-luc viability, CellTiter-Fluor, 24 h; series mostly up to 70.3 µM
Inconclusive results are not listed. Active and inactive are the calls of the source. Calls follow the shape of the dose curve; as a rule, active = well fitted cell-killing curve with a large enough effect in the repeat runs; inconclusive = weak or mixed curves, or effect the other way; inactive = flat fitted curve, though single readings scatter.
// allowed return values: 1 = active, 0 = inactive

molecule	label.class
CC1=C(/C=C/C(C)=C/C=C/C(C)=C/C=C/C=C(C)/C=C/C=C(C)/C=C/C2=C(C)C(=O)CCC2(C)C)C(C)(C)CCC1=O	0
CCN1C(=O)NC(c2ccccc2)C1=O (configuration not stated)	0
O=C(O)CO.[NH2-].[NH2-].[Pt+2]	0
CC(C)[C@@H]1CC[C@@H](C)C[C@H]1OC(=O)c1ccccc1O	0
O=C(O[C@H]1CN2CCC1CC2)N1CCc2ccccc2[C@@H]1c1ccccc1	0

Query string: Assay result, entry [O]=[Bi][O][Bi]=[O] — outcome?
Result string: 0

Query string: Assay result, entry CCN(CC)c1ccc(C(=C2C=CC(=[N+](CC)CC)C=C2)c2ccccc2)cc1 — outcome?
Result string: 1

Query string: Assay result, entry C[C@H](CCCC(C)(C)O)[C@H]1CC[C@H]2[C@@H]3CC=C4C[C@@H](O)CC[C@]4(C)[C@H]3CC[C@]12C — outcome?
Result string: 0

Query string: Assay result, entry CC1(C)S[C@@H]2[C@H](NC(=O)[C@H](NC(=O)N3CCN(S(C)(=O)=O)C3=O)c3ccccc3)C(=O)N2[C@H]1C(=O)O — outcome?
Result string: 0

----------
- protocol.summary: qHTS assay to identify small molecule antagonists of the thyroid receptor (TR) signaling pathway - cell viability counter screen (AID 743064); also: nearly all actives have a fitted effect of over 50% in size
- assay.context: GH3.TRE-Luc viability, CellTiter-Fluor, 24 h; series mostly up to 70.3 µM
Inconclusive results are not listed. Activity calls are given as the source filed them. Calls follow the shape of the dose curve; as a rule, active = well fitted cell-killing curve with a large enough effect in the repeat runs; inconclusive = weak or mixed curves, or effect the other way; inactive = no such curve, though single readings can be large or run the other way. Positions of bridges follow the written chain, without caps; N, C: chain ends. Non-standard residues stand in square brackets, D forms with d. Residues, ends and D or L forms follow the SMILES beside them. *: point of attachment. X2 = CC[C@H](C)CCCCC(=O)*; Dab = NCC[C@H](N)C(=O)O
// allowed return values: true = active, false = inactive

compound	label.class
CSc1nc2cc(Oc3cccc(Cl)c3Cl)c(Cl)cc2[nH]1	true
OC[C@H]1OC([S-])[C@H](O)[C@@H](O)[C@@H]1O.[Au+] (stereo partly specified)	true
CCC(=O)O[C@]1(C(=O)CCl)[C@@H](C)C[C@H]2[C@@H]3C[C@H](F)C4=CC(=O)C=C[C@]4(C)[C@@]3(F)[C@@H](O)C[C@@]21C	false
O=C(O[C@H]1CN2CCC1CC2)N1CCc2ccccc2[C@@H]1c1ccccc1	true
N[C@H](CCC(=O)O)C(=O)O	false
CCc1ccc(S(=O)(=O)O)cc1	false
CC(=O)O[C@H]1C(=O)[C@@]2(C)[C@H]([C@H](OC(=O)c3ccccc3)[C@]3(O)C[C@H](OC(=O)[C@H](O)[C@@H](NC(=O)c4ccccc4)c4ccccc4)C(C)=C1C3(C)C)[C@]1(OC(C)=O)CO[C@@H]1C[C@@H]2O	true
CN[C@@H]1[C@@H](O)[C@@H](O[C@@H]2[C@@H](O)[C@H](OC3OC(CN)=CCC3N)[C@@H](N)C[C@H]2N)OC[C@]1(C)O (stereo partly specified)	false
CCCCC/C=C\CCC(=O)N[C@H]1[C@H](Oc2c3cc4cc2Oc2ccc(cc2Cl)[C@@H](O[C@@H]2O[C@H](CO)[C@@H](O)[C@H](O)[C@H]2NC(C)=O)[C@@H]2NC(=O)[C@H](NC(=O)[C@@H]4NC(=O)[C@H]4NC(=O)[C@@H](Cc5ccc(c(Cl)c5)O3)NC(=O)[C@H](N)c3ccc(O)c(c3)Oc3cc(O)cc4c3)c3ccc(O)c(c3)-c3c(O[C@H]4O[C@H](CO)[C@@H](O)[C@H](O)[C@@H]4O)cc(O)cc3[C@@H](C(=O)O)NC2=O)O[C@H](CO)[C@@H](O)[C@@H]1O	false
O=C(O)[C@H](CC(=O)N1C[C@H]2CCCC[C@H]2C1)Cc1ccccc1	false

Query string: Assay result, entry CC[C@H](C)CCCCC(=O)N[C@@H](CCN)C(=O)N[C@H](C(=O)N[C@@H](CCN)C(=O)N[C@H]1CCNC(=O)[C@@H]([C@H](C)O)NC(=O)[C@H](CCN)NC(=O)[C@H](CCN)NC(=O)[C@H](CC(C)C)NC(=O)[C@@H](CC(C)C)NC(=O)[C@H](CCN)NC1=O)[C@@H](C)O (X2-[Dab]T[Dab][Dab][Dab][dL]L[Dab][Dab][dT]; lactam 4-C) — outcome?
Result string: false

Query string: Assay result, entry COc1c(O[C@@H]2O[C@H](CO)[C@@H](O)[C@H](O)[C@H]2O)cc2c(c1OC)-c1ccc(SC)c(=O)cc1[C@@H](NC(C)=O)CC2 — outcome?
Result string: false

Query string: Assay result, entry CCOC(=O)C1=C[C@@H](OC(CC)CC)[C@H](NC(C)=O)[C@@H](N)C1 — outcome?
Result string: false

Query string: Assay result, entry CCCCCCCCCCCCCCCC(=O)OC[C@@H](O)[C@H]1OC[C@H](O)[C@H]1O — outcome?
Result string: false

Query string: Assay result, entry CC(=O)Oc1cc(C)c(OC(C)=O)c2ccccc12 — outcome?
Result string: true

Query string: Assay result, entry CCC(=O)OCC(=O)[C@@]1(OC(=O)CC)[C@@H](C)C[C@H]2[C@@H]3CCC4=CC(=O)C=C[C@]4(C)[C@@]3(Cl)[C@@H](O)C[C@@]21C — outcome?
Result string: false

----------
- protocol.summary: qHTS assay for small molecule disruptors of the mitochondrial membrane potential - cell viability (AID 720634);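 also: human HepG2 liver cancer cells; nearly all actives have a fitted effect of over 20% in size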
- assay.context: HepG2 viability, ATP luminescence (CellTiter-Glo), 1 h; series mostly up to 83.2 µM
Records with an inconclusive call do not appear. Calls of active or inactive are those of the source. Calls come from the whole dose curve.
// allowed return values: active, inactive

Example results:
compound	label.class
CC[C@@]1(O)C[C@H](O[C@H]2C[C@H](N(C)C)[C@H](O[C@H]3C[C@H](O)[C@H](O[C@H]4CCC(=O)[C@H](C)O4)[C@H](C)O3)[C@H](C)O2)c2c(cc3c(c2O)C(=O)c2c(O)cccc2C3=O)[C@H]1C(=O)OC	inactive
CCOC(=O)CCC(=O)O[C@H]1[C@H](O[C@@H]2[C@@H](C)[C@H](O[C@H]3C[C@@](C)(OC)[C@@H](O)[C@H](C)O3)[C@@H](C)C(=O)O[C@H](CC)[C@@](C)(O)[C@H](O)[C@@H](C)C(=O)[C@H](C)C[C@@]2(C)O)O[C@H](C)C[C@@H]1N(C)C	inactive
CC1=C[C@H](O)CC(C)(C)[C@H]1/C=C/C(C)=C/C=C/C(C)=C/C=C/C=C(C)/C=C/C=C(C)/C=C/C1=C(C)C[C@@H](O)CC1(C)C	inactive
COc1cc2[nH]c(C)c(CCN3CCN(c4ccccc4)CC3)c2cc1OC	inactive
COCC1=C(C(=O)OC(C)OC(=O)OC(C)C)N2C(=O)[C@@H](NC(=O)/C(=N\OC)c3csc(N)n3)[C@H]2SC1 (some centres undefined)	inactive

Query string: Assay result, entry CCN(CC)c1ccc(N=Nc2ccc(S(=O)(=O)N(C)C)cc2)c(S(=O)(=O)NCC[n+]2ccccc2)c1 — outcome?
Result string: inactive

Query string: Assay result, entry COc1cc(S(C)=O)ccc1-c1nc2ncccc2[nH]1 (centres undefined) — outcome?
Result string: inactive

Query string: Assay result, entry Cc1ccccc1OCC(O)CNCCOc1ccc(C(N)=O)cc1 (centres undefined) — outcome?
Result string: inactive

Query string: Assay result, entry COc1cc([C@@H]2c3cc4c(cc3C(O[C@@H]3O[C@@H]5COC(c6cccs6)O[C@H]5[C@H](O)[C@H]3O)C3COC(=O)[C@@H]32)OCO4)cc(OC)c1O (some centres undefined) — outcome?
Result string: inactive

Query string: Assay result, entry CO[C@H]1C[C@@H]2CC[C@@H](C)[C@@](O)(O2)C(=O)C(=O)N2CCCC[C@H]2C(=O)O[C@H]([C@H](C)C[C@@H]2CC[C@@H](OC(=O)C(C)(CO)CO)[C@H](OC)C2)CC(=O)[C@H](C)/C=C(\C)[C@@H](O)[C@@H](OC)C(=O)[C@H](C)C[C@H](C)/C=C/C=C/C=C/1C — outcome?
Result string: inactive

Value source: PubChem BioAssay (Tox21)
